Data credit: PubChem BioAssay (NCI)

- Test system: DU-145 prostate
- Assay method text: NCI tumour cell line growth inhibition, 48 h; in the data active means GI50 below about 0.43 µM; inactive means the rest
I would appreciate it if you answered using one of these outcomes: active, inactive

> print(dat)
                                   compound     study.target  assigned.category
1  COC(=O)c1c(O)c([N+](=O)[O-])cc2c1c1c(n2Cc2ccccc2)C(=O)c2ccccc2C1=O  DU-145 prostate           inactive

For "COC(=O)Nc1nc2ccc(C(=O)c3ccc(N(C)C4COC4)cc3)cc2[nH]1" , which call appears in the assay record?
active

For CC(=O)N1c2ccccc2NC2=C(C(=O)N(Cc3ccccc3)C2(C)C)C1c1ccco1 (stereo not given) , which call appears in the assay record?
active

For "COC1=CC(=O)C(OC)=C(OC)C1=O" , which call appears in the assay record?
inactive

For "CC#C/C(=N\OC[C@H]1COCCN1)c1ccc2ncnc(Nc3ccc(OCc4cccc(F)c4)c(Cl)c3)c2c1" , which call appears in the assay record?
inactive

* * *

- System: NCI-H23 lung
- Assay method text: NCI tumour cell line growth inhibition, 48 h
Measured property: log10 of TGI (log10 of the value in µM)
Units before log transform: µM; reported quantity: TGI; transform: log10.

Consider the worked cases shown below.
Compound	Study target	log10 of TGI
CN(C)CCSc1cccc(-c2cc(-c3cccc(SCCN(C)C)c3)nc(SCCN(C)C)n2)c1	NCI-H23 lung	1.18
O=C1C=CC2=[N+]([O-])C(c3ccccc3)(c3ccccc3)C(=Nc3ccccc3)C2=C1	NCI-H23 lung	0.75
C[C@]12Cc3cnn(-c4ccc(F)cc4)c3NC1CC[C@@H]1C2CC[C@@]2(C)C1CC[C@@H]2O (stereo partly drawn)	NCI-H23 lung	1.27

Which log10 of TGI is listed for "S=C(Nc1ccc(Cl)cc1)Nc1ccc(-c2nc3ccccc3o2)cc1" ?
1.62

Which log10 of TGI is listed for "CC(C)CC(=O)Nc1n[nH]c2c1CN(C(=O)C1CCN(C)CC1)C2(C)C" ?
0.73

* * *

TGI listing for selected compounds.
- Tested on: M19-MEL melanoma
- Assay method text: NCI tumour cell line growth inhibition, 48 h

> print(dat)
                                   compound   reading
1  C=C1C(=O)OC2/C=C(/C)C3CC(O)C(C)(CC(OC(=O)/C(C)=C/C)C12)O3 (stereo not drawn)   9.57 µM
2  CCN(CC)CCCC(C)Nc1ccnc2ccc3nn(C)nc3c12 (stereo not drawn)  > 100 µM
3  CC(C)C1CC2C(=O)N(c3ccccc3)C(=O)C2c2[nH]c3ccccc3c21 (stereo not drawn)  > 100 µM
4  COc1ccc(C[C@@H]2NC[C@@H](O)[C@@H]2OC(C)=O)cc1  > 100 µM
5  O=C1C=CC2=[N+]([O-])C(c3ccccc3)(c3ccccc3)C(=Nc3ccccc3)C2=C1   3.36 µM
6  O=C(Cc1csc(-c2nc(CC(=O)NNc3ccccc3)cs2)n1)NNc1ccccc1  > 100 µM
7             COC(=O)CCC(=O)Nc1cc(Cl)ccc1Cl  > 100 µM
8      COc1ccc(Cc2cc3c(cc2OCC(=O)O)OCO3)cc1  > 100 µM

Which TGI is listed for "COc1ccc(N/N=C(\CCN(C)C)c2ccccc2)cc1" ?
13.5 µM

Which TGI is listed for "CN(/N=C/c1cccc2cccnc12)c1ccc([N+](=O)[O-])cc1" ?
> 100 µM

Which TGI is listed for CN1C(c2ccccc2)CS(=O)(=O)CS1(=O)=O (stereo not drawn) ?
> 100 µM
